Biological target: TRKA (Homo sapiens (Human))
Sequence (P04629 441-796): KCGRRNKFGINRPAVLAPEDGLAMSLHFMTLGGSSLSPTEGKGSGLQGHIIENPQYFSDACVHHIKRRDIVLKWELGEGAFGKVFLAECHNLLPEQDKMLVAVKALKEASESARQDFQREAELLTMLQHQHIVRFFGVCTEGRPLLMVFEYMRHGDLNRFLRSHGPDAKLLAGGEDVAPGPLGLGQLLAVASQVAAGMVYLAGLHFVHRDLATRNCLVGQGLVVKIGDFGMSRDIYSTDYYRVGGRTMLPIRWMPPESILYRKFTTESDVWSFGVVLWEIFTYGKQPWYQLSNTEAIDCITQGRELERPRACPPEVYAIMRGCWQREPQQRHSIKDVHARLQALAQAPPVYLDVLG
Test: Isolated TRK enzyme assay (HTRF KinEASE-TK), TRKA
Format: biochemical
Conditions: read-out: Trka enzyme (IC50)
property: IC50 (µM)

Solved cases below.
CC(C)n1cc(C(=O)c2cncc(NC(=O)Cc3nnc(O)c4ccccc34)c2)c2cncnc21; 7.64
CC(C)n1cc(C(=O)c2cncc(NC(=O)c3cnco3)c2)c2cncnc21; 9.8

I: CC(C)(CO)n1cc(C(=O)c2cncc(NC(=O)Cn3cnc4ccccc4c3=O)c2)c2cnc(N)nc21
II: CC(C)n1cc(C(=O)c2cncc(NC(=O)c3cc4cc(F)cnc4[nH]3)c2)c2cncnc21
Ask | Higher IC50 between I and II ? Which one? Tell me its label.
Reply | I

###

Target: TRKB (Homo sapiens (Human))
Sequence (Q16620 32-822 limits assumed): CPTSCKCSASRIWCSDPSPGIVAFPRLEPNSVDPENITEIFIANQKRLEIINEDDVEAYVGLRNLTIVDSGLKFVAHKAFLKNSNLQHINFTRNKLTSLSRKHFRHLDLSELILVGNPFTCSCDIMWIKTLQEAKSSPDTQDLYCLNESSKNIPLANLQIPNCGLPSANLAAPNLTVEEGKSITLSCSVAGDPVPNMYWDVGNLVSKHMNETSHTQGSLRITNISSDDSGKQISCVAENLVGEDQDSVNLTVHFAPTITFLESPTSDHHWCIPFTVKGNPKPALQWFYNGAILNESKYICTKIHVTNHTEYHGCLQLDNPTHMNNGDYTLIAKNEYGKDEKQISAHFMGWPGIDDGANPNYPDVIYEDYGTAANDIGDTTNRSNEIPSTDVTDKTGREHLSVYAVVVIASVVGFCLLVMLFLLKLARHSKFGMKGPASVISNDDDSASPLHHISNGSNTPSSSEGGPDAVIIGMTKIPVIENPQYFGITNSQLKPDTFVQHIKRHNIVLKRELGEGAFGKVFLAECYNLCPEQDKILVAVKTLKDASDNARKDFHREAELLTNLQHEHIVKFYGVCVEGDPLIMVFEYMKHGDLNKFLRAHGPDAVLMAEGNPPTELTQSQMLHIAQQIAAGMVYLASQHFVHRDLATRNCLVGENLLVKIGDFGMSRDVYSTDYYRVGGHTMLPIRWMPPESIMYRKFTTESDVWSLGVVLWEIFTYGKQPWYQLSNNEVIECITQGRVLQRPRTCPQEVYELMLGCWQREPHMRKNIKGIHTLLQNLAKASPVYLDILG
Assay: cell-based
Conditions: TrkB cell potency, TRKB PathHunter cell line
property: IC50 (nM)

I: CC(CO)n1cc(C(=O)c2cncc(NC(=O)Cc3ccc(C(F)(F)F)cc3)c2)c2cnc(N)nc21 (single isomer, unassigned) [Example 36]
II: CC(CO)n1cc(C(=O)c2cncc(NC(=O)Cc3ccc(F)cn3)c2)c2cnc(N)nc21 (single isomer, unassigned) [Example 37]
III: CC(C)(C)n1cc(C(=O)c2cncc(NC(=O)Cn3cc(C(F)(F)F)cn3)c2)c2cncnc21
IV: C[C@H](CO)n1cc(C(=O)c2cncc(NC(=O)Cc3ccc(F)cn3)c2)c2cncnc21
Ask | Please put the entries in order of rising IC50. Answer format: list of labels, ordered as asked.
Reply | III, I, IV, II
(III: 2 nM, I: 13 nM, IV: 206 nM, II: 571 nM)

###

Biological target: TRKA (Homo sapiens (Human))
Assay: Isolated TRK enzyme assay (HTRF KinEASE-TK), TRKA
Type: biochemical
Conditions: read-out: Trka enzyme (IC50)
property: IC50 (nM)

Solved cases below.
CC(C)n1cc(CC(=O)Nc2cncc(C(=O)c3cn(C(C)C)c4nc(N)ncc34)c2)c(C(F)(F)F)n1 [Example 254]; 52.6
CC(C)(C)n1cc(C(=O)c2cncc(NC(=O)Cc3ccc(Br)cn3)c2)c2cnc(N)nc21 [Example 529]; 3.93
CC(C)n1cc(C(=O)c2cncc(NC(=O)c3cc4occc4[nH]3)c2)c2cncnc21 [Example 431]; 235
COc1ccc2c(ccn2CC(=O)Nc2cncc(C(=O)c3cn(C(C)C)c4ncncc34)c2)c1 [Example 340]; 451
Cc1ccn(CC(=O)Nc2cncc(C(=O)c3cn(C(C)C)c4ncncc34)c2)n1 [Example 113]; 300
CCc1ccnc(C(=O)Nc2cncc(C(=O)c3cn(C(C)C)c4ncncc34)c2)c1 [Example 445]; 5.51
CC(C)n1cc(C(=O)c2cncc(NC(=O)Cc3ccc(C(F)(F)F)cc3)c2)c2cncnc21 [Example 67]; 4.15
Cn1cc(C(=O)c2cncc(NC(=O)Nc3ccc(C(F)(F)F)cc3)c2)c2cncnc21 [Example 294]; 61.4
CC(C)n1cc(C(=O)c2cncc(NC(=O)c3nccc4occc34)c2)c2cncnc21 [Example 380]; 422
CC(C)n1cc(C(=O)c2cncc(NC(=O)Cn3ccc(-c4cccs4)n3)c2)c2cncnc21 [Example 120]; 53

P: CC(C)c1cn(CC(=O)Nc2cncc(C(=O)c3cn(C(C)C)c4ncncc34)c2)nn1 [Example 105]
Q: CC(C)n1cc(C(=O)c2cncc(NC(=O)Cn3cc(C(F)(F)F)nn3)c2)c2cncnc21 [Example 106]
R: CC(C)n1cc(C(=O)c2cncc(NC(=O)c3ccncc3)c2)c2cncnc21 [Example 489]
S: Cn1cc(C(=O)c2cncc(NC(=O)Cc3cc(F)c(F)c(F)c3)c2)c2cncnc21 [Example 187]
T: Cc1cc(C(=O)Nc2cncc(C(=O)c3cn(C(C)C)c4ncncc34)c2)nn1C [Example 400]
Ask | # sort list by recorded IC50, greatest to least Answer format: list of labels, ordered as asked.
Reply | R, S, T, P, Q
(R: 9800 nM, S: 2630 nM, T: 593 nM, P: 25.6 nM, Q: 14.8 nM)

###

Molecular target: UniProt Q16620
Assay: biochemical
Settings: isolated TRKB enzyme; read-out: TrkB enzyme potency
pIC50: −log10 of the molar value.
property: pIC50

CC(C)(CO)n1cc(C(=O)c2cncc(NC(=O)Cn3cc(C(F)(F)F)nn3)c2)c2cncnc21; 6.37
CC(CO)n1cc(C(=O)c2cncc(NC(=O)Cc3ccc(Cl)cc3)c2)c2cnc(N)nc21 (single isomer, unassigned) [Example 42]; 6.72
C[C@@H](CO)n1cc(C(=O)c2cncc(NC(=O)Cn3ccc(C(F)(F)F)n3)c2)c2cncnc21; 6.26
CC(C)(CO)n1cc(C(=O)c2cncc(NC(=O)Cn3cc(C4CC4)cn3)c2)c2cncnc21; 7.02

P: CC(CO)n1cc(C(=O)c2cncc(NC(=O)Cc3ccc(Cl)cc3)c2)c2cnc(N)nc21 (single isomer, unassigned) [Example 34]
Q: C[C@@H](CO)n1cc(C(=O)c2cncc(NC(=O)Cn3cc(C(F)(F)F)nn3)c2)c2cncnc21
Ask | Higher pIC50 between P and Q ? Which one? Tell me its label.
Reply | P

###

Target: UniProtKB P04629
Test: Isolated TRK enzyme assay (HTRF KinEASE-TK), TRKA
Assay type: biochemical
Conditions: read-out: Trka enzyme (IC50)
property: IC50 (nM)

CC(C)n1cc(C(=O)c2cncc(NC(=O)Cc3c[nH]c4ccccc34)c2)c2cncnc21; 131
O=C(Cn1ccc(C(F)(F)F)n1)Nc1cncc(C(=O)c2cn(C(CO)CO)c3ncncc23)c1; 297
CC(C)n1cc(C(=O)c2cncc(NC(=O)c3cnnc4ccccc34)c2)c2cncnc21; 228
Cn1cc(C(=O)c2cncc(NC(=O)Cc3c(F)ccc(F)c3F)c2)c2cncnc21; 3840

A: COc1ccc(C(=O)Nc2cncc(C(=O)c3cn(C(C)C)c4ncncc34)c2)nc1
B: C[C@@H](CO)n1cc(C(=O)c2cncc(NC(=O)Cc3ccc(OC(F)F)cc3)c2)c2cncnc21
C: Cc1[nH]c2ccc(F)cc2c1CC(=O)Nc1cncc(C(=O)c2cn(C(C)C)c3ncncc23)c1
Ask | # sort list by recorded IC50, greatest to least Answer format: list of labels, ordered as asked.
Reply | A, C, B

a: CC(C)n1cc(C(=O)c2cncc(NC(=O)Cn3cccn3)c2)c2cncnc21
b: Cn1cc(C(=O)c2cncc(NC(=O)C3Cc4ccccc4C3)c2)c2cncnc21
Ask | Sorting ascending by IC50, which comes first: a or b ? Which one? Tell me its label.
Reply | a
(a: 976 nM, b: 4280 nM)

1: CC(CO)n1cc(C(=O)c2cncc(NC(=O)Cc3cccc(C(F)(F)F)c3)c2)c2cnc(N)nc21 (single isomer, unassigned) [Example 213]
2: CC(C)n1cc(C(=O)c2cncc(NC(=O)c3nc(Cl)c(Cl)[nH]3)c2)c2cncnc21
3: Cn1cc(C(=O)c2cncc(NC(=O)CCc3ccc(F)cc3)c2)c2cncnc21
4: Cn1cc(C(=O)c2cncc(NC(=O)COc3ccccc3OC(F)(F)F)c2)c2cncnc21
5: Cn1cc(C(=O)c2cncc(NC(=O)CCc3cccnc3)c2)c2cncnc21
Ask | Would you mind ranking these molecules by ascending IC50? Answer format: list of labels, ordered as asked.
Reply | 1, 4, 3, 2, 5

P: CC(C)n1cc(C(=O)c2cncc(NC(=O)c3c(C(F)(F)F)nn(C)c3Cl)c2)c2cncnc21
Q: CC(C)n1cc(C(=O)c2cncc(NC(=O)Cn3ncc4ccc([N+](=O)[O-])cc43)c2)c2cncnc21
R: CC(C)n1cc(C(=O)c2cncc(NC(=O)Cc3cnn(C4CC4)c3C(F)(F)F)c2)c2cncnc21
S: O=C(Nc1cncc(C(=O)c2cn(C(CO)CO)c3ncncc23)c1)c1cccc(C(F)(F)F)c1
T: CC(C)n1cc(C(=O)c2cncc(NC(=O)C(O)c3ccccc3)c2)c2cncnc21 (stereo not shown)
Ask | # sort list by recorded IC50, greatest to least Answer format: list of labels, ordered as asked.
Reply | P, S, Q, R, T

###

Biological target: MDR1 (Homo sapiens (Human), UniProt P08183)
Sequence (P08183 whole entry): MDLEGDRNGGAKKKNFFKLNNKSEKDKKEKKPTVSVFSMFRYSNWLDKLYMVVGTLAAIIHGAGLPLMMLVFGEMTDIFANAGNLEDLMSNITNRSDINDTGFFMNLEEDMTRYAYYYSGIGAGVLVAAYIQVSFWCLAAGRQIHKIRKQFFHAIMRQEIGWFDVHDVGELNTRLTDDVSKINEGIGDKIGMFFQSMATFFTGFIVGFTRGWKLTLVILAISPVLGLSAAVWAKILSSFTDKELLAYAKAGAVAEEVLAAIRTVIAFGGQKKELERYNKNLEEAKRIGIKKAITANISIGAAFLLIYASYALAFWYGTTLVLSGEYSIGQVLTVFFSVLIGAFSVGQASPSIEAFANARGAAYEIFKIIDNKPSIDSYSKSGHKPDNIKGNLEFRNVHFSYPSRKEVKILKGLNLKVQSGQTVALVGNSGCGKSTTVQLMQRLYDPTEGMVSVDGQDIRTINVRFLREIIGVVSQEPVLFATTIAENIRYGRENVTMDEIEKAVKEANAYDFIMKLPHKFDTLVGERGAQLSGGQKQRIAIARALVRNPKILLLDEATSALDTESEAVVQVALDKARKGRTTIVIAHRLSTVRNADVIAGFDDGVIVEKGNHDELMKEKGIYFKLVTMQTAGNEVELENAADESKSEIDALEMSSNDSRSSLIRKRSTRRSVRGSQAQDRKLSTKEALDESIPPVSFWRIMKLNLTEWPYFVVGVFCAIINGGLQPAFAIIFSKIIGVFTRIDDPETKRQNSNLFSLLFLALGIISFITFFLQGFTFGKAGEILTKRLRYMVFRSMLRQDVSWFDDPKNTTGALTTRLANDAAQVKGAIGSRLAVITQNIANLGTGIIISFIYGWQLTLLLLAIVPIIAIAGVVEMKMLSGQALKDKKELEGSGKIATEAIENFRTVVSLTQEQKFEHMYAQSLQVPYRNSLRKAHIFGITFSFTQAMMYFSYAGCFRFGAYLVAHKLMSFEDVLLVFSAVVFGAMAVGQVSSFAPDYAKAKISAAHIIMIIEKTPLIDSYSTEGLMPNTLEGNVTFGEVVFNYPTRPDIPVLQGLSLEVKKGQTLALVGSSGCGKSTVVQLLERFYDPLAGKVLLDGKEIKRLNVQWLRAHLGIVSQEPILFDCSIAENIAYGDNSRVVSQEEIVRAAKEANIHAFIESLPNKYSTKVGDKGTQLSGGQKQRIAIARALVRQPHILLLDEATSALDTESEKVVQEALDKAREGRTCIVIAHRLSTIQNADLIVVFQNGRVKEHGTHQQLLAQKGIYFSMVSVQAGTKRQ
Test: MDCK-MDR1 assay (in vitro brain penetration)
Format: in vitro ADME
Conditions: human; MDCK-MDR1, B to A; read-out: MDCK MDR1 Papp BA
property: Papp B→A (×10⁻⁶ cm/s)

Solved cases below.
CC(C)(CO)n1cc(C(=O)c2cncc(NC(=O)Cn3nc4ccccc4n3)c2)c2cnc(N)nc21; 20
CC(C)(CO)n1cc(C(=O)c2cncc(NC(=O)Cc3ccc(Cl)cn3)c2)c2cncnc21; 23
CC(C)(CO)n1cc(C(=O)c2cncc(NC(=O)Cc3ccc(Cl)cc3)c2)c2cncnc21; 20
CC(C)(CO)n1cc(C(=O)c2cncc(NC(=O)Cn3ccc(C(F)(F)F)n3)c2)c2cncnc21; 15
Cc1cc(C(F)(F)F)nn1CC(=O)Nc1cncc(C(=O)c2cn(C(C)(C)CO)c3ncncc23)c1; 16

1: C[C@@H](CO)n1cc(C(=O)c2cncc(NC(=O)Cn3nc4ccccc4n3)c2)c2cncnc21
2: CC(C)(CO)n1cc(C(=O)c2cncc(NC(=O)Cn3cc(C4CC4)nn3)c2)c2cnc(N)nc21
3: C[C@H](CO)n1cc(C(=O)c2cncc(NC(=O)Cc3ccc(F)cn3)c2)c2cncnc21
Ask | Would you mind ranking these molecules by ascending Papp B→A? Answer format: list of labels, ordered as asked.
Reply | 2, 3, 1
(2: 1 ×10⁻⁶ cm/s, 3: 8.5 ×10⁻⁶ cm/s, 1: 15 ×10⁻⁶ cm/s)
